assay_notes: logP by HPLC (EEC Directive 79/831 Annex V. A8, gradient method)
Assay type: physicochemical
experimental_context: HPLC, gradient method, acetonitrile/0.1% aqueous phosphoric acid; Table 1
assay_metric: logP
Reply with the value as a number alone.

O=C(c1ccc(OC2=NS(=O)(=O)CS2)cc1)c1ccc(-c2ccccc2)cc1	3.72

# evaluate next
**Q:** Suppose we examine the compound O=C(c1ccc(Cl)cc1)c1ccc(OC2=NS(=O)(=O)CS2)cc1 ; what logP value has been reported?
**A:** 3.17

----------
assay_notes: logP by HPLC (EEC Directive 79/831 Annex V. A8, gradient method)
Assay type: physicochemical
experimental_context: HPLC, gradient method, acetonitrile/0.1% aqueous phosphoric acid; Table 1
assay_metric: logP
Number only, no unit.

Here is how some compounds turned out for logP.
Cc1cc(S(=O)(=O)c2ccccc2)cc(Cl)c1OC1=NS(=O)(=O)CS1 [Example 120]	2.83
O=S1(=O)CSC(Oc2ccc(-c3nnco3)cc2)=N1 [Example 35]	1.36
Cc1cc(OC2=NS(=O)(=O)CS2)ccc1N [Example 137]	0.83
CC(O)c1cccc(OC2=NS(=O)(=O)CS2)c1 (racemic) [Example 80]	1.48
COc1cc(C=Cc2ccccc2)cc(OC2=NS(=O)(=O)CS2)c1 (mixture of isomers) [Example 87]	3.62

**Q:** Entry CCOC(=O)NN=C(C)c1ccc(OC2=NS(=O)(=O)CS2)cc1 [Example 72] has what logP?
**A:** 1.86

**Q:** Query: logP; subject: O=S1(=O)CSC(Oc2cccc(C3=NOCCO3)c2)=N1 [Example 56]
**A:** 1.86

**Q:** Consider the compound shown here: CC(C)(C)c1cc(OC2=NS(=O)(=O)CS2)ccc1O [Example 34] What is its recorded logP?
**A:** 2.66

**Q:** What does the data say about its logP? Entry: N#CC(C#N)=Cc1cccc(OC2=NS(=O)(=O)CS2)c1 [Example 38]
**A:** 1.59

----------
assay_notes: logP by HPLC (EEC Directive 79/831 Annex V. A8, gradient method)
Assay type: physicochemical
experimental_context: gradient of acetonitrile/0.1% aqueous phosphoric acid; HPLC, gradient method, acetonitrile/0.1% aqueous phosphoric acid; Table 1
Define the label as rule met when chromatographic logP is strictly less than 3 and as rule not met in all remaining cases.

Cc1ccc(OC2=NS(=O)(=O)CS2)c(C)c1	rule met
C/C(=N/OCc1ccccc1)c1ccc(OC2=NS(=O)(=O)CS2)cc1	rule not met
O=S1(=O)CSC(Oc2cccc(F)c2)=N1	rule met

**Q:** Check if chromatographic logP falls below 3 for CO/N=C(/C)c1cccc(OC2=NS(=O)(=O)CS2)c1 .
**A:** rule met

**Q:** Bench note: check whether O=C(c1ccccc1)c1cccc(OC2=NS(=O)(=O)CS2)c1 shows chromatographic logP below 3
**A:** rule met

**Q:** Lab note: confirm whether the reported chromatographic logP for this compound is below 3, equality not counting. compound: CC(C)(C)c1cccc(OC2=NS(=O)(=O)CS2)c1
**A:** rule not met

**Q:** Strictly below 3: is that where chromatographic logP of CO/N=C(/c1ccccc1)c1cccc(OC2=NS(=O)(=O)CS2)c1 sits?
**A:** rule not met

**Q:** Determine whether this compound shows chromatographic logP lower than 3 (ties excluded): C=CCO/N=C(/c1ccccc1)c1cccc(OC2=NS(=O)(=O)CS2)c1
**A:** rule not met

**Q:** Below 3 on chromatographic logP? Entry C/C(=N/OC(C)(C)C)c1ccc(OC2=NS(=O)(=O)CS2)cc1
**A:** rule not met

**Q:** # strict comparison: is reported chromatographic logP < 3? input = O=[N+]([O-])c1ccccc1OC1=NS(=O)(=O)CS1
**A:** rule met

----------
Parameter: logP. Scope: all listed entries.
assay_notes: logP by HPLC (EEC Directive 79/831 Annex V. A8, gradient method)
Assay type: physicochemical
experimental_context: HPLC, gradient method, acetonitrile/0.1% aqueous phosphoric acid; Table 1

Examples with answers:
O=S1(=O)CSC(Oc2ccc(C3=Nc4ccccc4SC(c4ccccc4)C3)cc2)=N1 (centres unmarked)	4.19
CON=C(C)c1cc(OC2=NS(=O)(=O)CS2)ccc1OC1=NS(=O)(=O)CS1	2.43
CN=Cc1ccc(OC2=NS(=O)(=O)CS2)cc1	2.33
CC(C)(C)ON=C(c1ccccc1)c1cccc(OC2=NS(=O)(=O)CS2)c1	4.4

Okay, next one:
**Q:** Sample COc1cccc(OC2=NS(=O)(=O)CS2)c1OC — what was its logP?
**A:** 2.12

----------
assay_notes: logP by HPLC (EEC Directive 79/831 Annex V. A8, gradient method)
Type: physicochemical
experimental_context: HPLC, gradient method, acetonitrile/0.1% aqueous phosphoric acid; Table 1
assay_metric: logP
Respond numerically, and do not add a unit to the figure.

O=S1(=O)CSC(Oc2cccc(CO)c2)=N1	1.23
O=[N+]([O-])c1ccc(C=Cc2cccc(OC3=NS(=O)(=O)CS3)c2[N+](=O)[O-])cc1 (mixture of isomers)	3.28

**Q:** Given the molecule CSc1nnc(C(C)(C)C)c(=O)n1N=Cc1cccc(OC2=NS(=O)(=O)CS2)c1 , what is its reported logP?
**A:** 3.43

**Q:** Consider the molecule shown here: CCCCc1oc2ccccc2c1C(=O)c1ccc(OC2=NS(=O)(=O)CS2)cc1 What is its recorded logP?
**A:** 4.28

**Q:** Which measured logP value corresponds to Cc1cccc(C)c1OC1=NS(=O)(=O)CS1 ?
**A:** 2.57

**Q:** Given the molecule O=C(C=Cc1ccccc1)c1ccccc1OC1=NS(=O)(=O)CS1 , what is its reported logP?
**A:** 2.91

**Q:** Consider the molecule shown here: COC(=O)Nc1ccc(C=Cc2cccc(OC3=NS(=O)(=O)CS3)c2)c(NC(=O)OC)c1 What is its recorded logP?
**A:** 2.43

**Q:** Fill blank: measured logP of the molecule COc1ccc(OC2=NS(=O)(=O)CS2)cc1OC is ____.
**A:** 1.82

**Q:** // returns reported logP for input O=S1(=O)CSC(Oc2cccc(CCO)c2)=N1
**A:** 1.39

----------
assay_notes: logP by HPLC (EEC Directive 79/831 Annex V. A8, gradient method)
Format: physicochemical
experimental_context: HPLC, gradient method, acetonitrile/0.1% aqueous phosphoric acid; Table 1
assay_metric: logP
Respond with the number and no other words.

O=[N+]([O-])c1ccc(/C=C/c2ccc(OC3=NS(=O)(=O)CS3)cc2)cc1	3.3

**Q:** Returns the measured logP for the input compound. Input: CCOC(=O)NN=Cc1cccc(OC2=NS(=O)(=O)CS2)c1
**A:** 1.79

**Q:** Which logP is listed for O=S1(=O)CSC(Oc2ccc(N=Nc3ccccc3)cc2Cl)=N1 ?
**A:** 3.96

----------
assay_notes: logP by HPLC (EEC Directive 79/831 Annex V. A8, gradient method)
Format: physicochemical
experimental_context: HPLC, gradient method, acetonitrile/0.1% aqueous phosphoric acid; Table 1
assay_metric: logP

CCC(=O)c1ccccc1OC1=NS(=O)(=O)CS1	2.04
Cc1cc(OC2=NS(=O)(=O)CS2)ccc1Sc1ccc([N+](=O)[O-])cc1C	3.94

**Q:** Given O=S1(=O)CSC(Oc2ccccc2CC2=NOCCO2)=N1 , state its recorded logP.
**A:** 1.69

----------
assay_notes: logP by HPLC (EEC Directive 79/831 Annex V. A8, gradient method)
Type: physicochemical
experimental_context: Table 2
assay_metric: chromatographic logP
Reply with the value as a number alone.

Some solved cases for reference:
O=c1oc2cc(OC3=NS(=O)(=O)CS3)ccc2cc1-c1ccccc1	2.77
COC(=O)/C(C#N)=C1/Oc2ccc(OC3=NS(=O)(=O)CS3)cc2S1	2.31
COC(=O)c1c(-c2ccc(-c3ccccc3)cc2)oc2ccc(OC3=NS(=O)(=O)CS3)cc12	3.43

Now for the molecule whose chromatographic logP we want.
**Q:** Which chromatographic logP value belongs to CC1(C)Oc2cccc(OC3=NS(=O)(=O)CS3)c2O1 ?
**A:** 2.6

----------
assay_notes: logP by HPLC (EEC Directive 79/831 Annex V. A8, gradient method)
Type: physicochemical
experimental_context: HPLC, gradient method, acetonitrile/0.1% aqueous phosphoric acid; Table 1
assay_metric: logP
Lab note: jot the number down without any unit.

Worked cases, logP given:
CON=C(C(N)=O)c1ccccc1OC1=NS(=O)(=O)CS1	1.33
COc1cc(C=CN2C(=O)c3ccccc3C2=O)ccc1OC1=NS(=O)(=O)CS1 (mixture of isomers)	2.63
O=S1(=O)CSC(Oc2ccc(C(F)(F)F)cc2)=N1	2.64
C=CCON=C(C)c1ccc(OC2=NS(=O)(=O)CS2)cc1	3.15
O=S1(=O)CSC(Oc2ccc(-c3nc4ccccc4o3)cc2)=N1	2.88

**Q:** logP for O=S1(=O)CSC(Oc2ccc(F)cc2)=N1 ?
**A:** 2.04

**Q:** Which logP is reported for this compound? COC(=O)c1ccc(OC2=NS(=O)(=O)CS2)cc1C(=O)OC
**A:** 1.93
